Biological target: cGMP-specific 3',5'-cyclic phosphodiesterase (Homo sapiens)
Assay: Inhibition of human Phosphodiesterase 5 purified from MCF-7 cells
pIC50: −log10 of the molar value.
As shown below, each of these compounds has a reported pIC50 value.

given.smiles: Cn1nc(-c2ccc(Cl)cc2)s/c1=N\c1ccc(O)cc1
limit.sign: <
pIC50: 4.00
--
given.smiles: Cn1nc(-c2ccc(Cl)cc2)s/c1=N\c1cccc(F)c1
limit.sign: <
pIC50: 4.00
--
given.smiles: Cn1nc(-c2ccc(Cl)cc2)s/c1=N\c1ccc(O)c(C(=O)O)c1
limit.sign: =
pIC50: 5.40
--
given.smiles: Cn1nc(-c2ccc(Cl)cc2)s/c1=N\c1c(O)cccc1C(=O)O
limit.sign: =
pIC50: 4.73
--
given.smiles: Cn1nc(-c2ccc(Cl)cc2)s/c1=N\c1ccc(C(=O)O)cc1
limit.sign: =
pIC50: 4.39
--
given.smiles: Cn1nc(-c2ccc(Cl)cc2)s/c1=N\c1cccc(C(N)=O)c1
limit.sign: <
pIC50: 4.00
